target.or.test.system: thrombin (Homo sapiens, UniProt P00734)
measurement.notes: in-vitro inhibition of the amidase activity of thrombin (fluorogenic substrate Tos-Gly-Pro-Arg-AMC)
Type: biochemical
Parameters: 10 μl of human thrombin solution
condition.set: peptide concentration of 1 μM
Square brackets hold non-standard residues; d marks the D form. hArg = N=C(N)NCCCC[C@H](N)C(=O)O; Cha = N[C@@H](CC1CCCCC1)C(=O)O; dCha = N[C@H](CC1CCCCC1)C(=O)O; Aze = O=C(O)[C@@H]1CCN1
Listed next: entries and their corresponding inhibition of the amidase activity of the thrombin.
measurement.label: inhibition of the amidase activity of the thrombin (%)

>>> observed_value("N-acetyl-L-Ala-D-Cha-L-Pro-D-Tyr-L-Har amide (Ac-A[dCha]P[dY][hArg]-NH2; SMILES CC(=O)N[C@@H](C)C(=O)N[C@H](CC1CCCCC1)C(=O)N1CCC[C@H]1C(=O)N[C@H](Cc1ccc(O)cc1)C(=O)N[C@@H](CCCCNC(=N)N)C(N)=O) [Example 17]")
56
>>> observed_value("N-acetyl-D-Glu-L-Cha-D-Pro-D-Tyr-L-Arg amide (Ac-[dE][Cha][dP][dY]R-NH2; SMILES CC(=O)N[C@H](CCC(=O)O)C(=O)N[C@@H](CC1CCCCC1)C(=O)N1CCC[C@@H]1C(=O)N[C@H](Cc1ccc(O)cc1)C(=O)N[C@@H](CCCNC(=N)N)C(N)=O) [Example 2]")
58
>>> observed_value("N-acetyl-D-Val-D-His-L-Cha-D-Pro-D-Tyr-L-Arg amide (Ac-[dV][dH][Cha][dP][dY]R-NH2; SMILES CC(=O)N[C@@H](C(=O)N[C@H](Cc1c[nH]cn1)C(=O)N[C@@H](CC1CCCCC1)C(=O)N1CCC[C@@H]1C(=O)N[C@H](Cc1ccc(O)cc1)C(=O)N[C@@H](CCCNC(=N)N)C(N)=O)C(C)C) [Example 3]")
51
>>> observed_value("N-acetyl-L-Ala-D-Cha-L-Aze-D-Tyr-L-Arg amide (Ac-A[dCha][Aze][dY]R-NH2; SMILES CC(=O)N[C@@H](C)C(=O)N[C@H](CC1CCCCC1)C(=O)N1CC[C@H]1C(=O)N[C@H](Cc1ccc(O)cc1)C(=O)N[C@@H](CCCNC(=N)N)C(N)=O) [Example 16]")
63
